Tested on: Epidermal growth factor receptor (Homo sapiens), P00533 [L858R,T790M]
Sequence (P00533 whole entry T790M/L858R, looked up): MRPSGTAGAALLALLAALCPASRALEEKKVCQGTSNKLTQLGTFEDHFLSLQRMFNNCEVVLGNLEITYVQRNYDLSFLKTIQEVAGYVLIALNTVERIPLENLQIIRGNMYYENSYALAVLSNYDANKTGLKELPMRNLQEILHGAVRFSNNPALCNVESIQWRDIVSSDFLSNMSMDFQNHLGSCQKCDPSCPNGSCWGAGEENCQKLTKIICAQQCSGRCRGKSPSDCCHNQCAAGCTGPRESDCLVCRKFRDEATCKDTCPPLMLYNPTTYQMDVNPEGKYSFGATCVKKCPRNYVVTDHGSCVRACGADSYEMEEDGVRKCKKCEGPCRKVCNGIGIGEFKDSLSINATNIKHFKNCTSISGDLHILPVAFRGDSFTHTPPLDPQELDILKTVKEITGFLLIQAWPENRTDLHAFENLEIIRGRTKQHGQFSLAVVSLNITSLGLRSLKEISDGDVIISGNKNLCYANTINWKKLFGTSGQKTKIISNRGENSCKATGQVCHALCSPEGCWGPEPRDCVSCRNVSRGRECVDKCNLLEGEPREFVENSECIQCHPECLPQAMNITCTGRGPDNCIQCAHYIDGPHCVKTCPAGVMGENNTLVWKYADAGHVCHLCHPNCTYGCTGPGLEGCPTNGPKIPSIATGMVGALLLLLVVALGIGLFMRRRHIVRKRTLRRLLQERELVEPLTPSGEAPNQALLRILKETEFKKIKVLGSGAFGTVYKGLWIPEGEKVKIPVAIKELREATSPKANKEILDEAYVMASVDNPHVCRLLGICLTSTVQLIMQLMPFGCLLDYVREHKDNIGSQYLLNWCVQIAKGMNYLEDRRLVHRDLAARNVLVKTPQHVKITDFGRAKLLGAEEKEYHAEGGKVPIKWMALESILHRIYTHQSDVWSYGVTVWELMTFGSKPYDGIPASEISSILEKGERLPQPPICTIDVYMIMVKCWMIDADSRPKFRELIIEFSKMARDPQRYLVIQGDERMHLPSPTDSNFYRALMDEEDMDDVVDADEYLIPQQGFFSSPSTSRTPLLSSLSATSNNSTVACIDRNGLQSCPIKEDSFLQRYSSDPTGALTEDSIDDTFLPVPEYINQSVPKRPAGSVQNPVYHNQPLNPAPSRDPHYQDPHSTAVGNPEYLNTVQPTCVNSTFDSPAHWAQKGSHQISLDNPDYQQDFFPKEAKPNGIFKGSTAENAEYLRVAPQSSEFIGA
Settings: NCI-H1975, at 10 µM
Active and inactive are the calls of the source. The rule behind the calls is not given here.
Answer with one of the outcomes given here: active, inactive

query: # lookup: test call for `COc1cc(/C=C/C(=O)/C(C(C)=O)=C(O)/C=C/c2ccc(O)c(OC)c2)ccc1O`
result: active

query: # lookup: test call for `CCOC(=O)CCCOc1ccc(/C=C/C(=O)/C=C(O)/C=C/c2ccc(OCCCC(=O)OCC)c(OC)c2)cc1OC`
result: inactive

query: # lookup: test call for `CCOC(=O)/C=C/C(C(=O)/C=C/c1ccc(O)c(O)c1)=C(O)\C=C\c1ccc(O)c(OC)c1`
result: inactive

query: # lookup: test call for COc1ccc(CCC(=O)CC(O)CCc2ccc(OC)c(OC)c2)cc1OC (centres undefined)
result: inactive

query: # lookup: test call for `CCOC(=O)CCCOc1ccc(/C=C/C(=O)/C(CCC(=O)OCC)=C(O)/C=C/c2ccc(OCCCC(=O)OCC)c(OC)c2)cc1OC`
result: inactive

query: # lookup: test call for `COc1cc(F)c(/C=C/C(=O)/C=C(O)/C=C/c2cc(OC)c(OC)cc2F)cc1OC`
result: active

query: # lookup: test call for `COc1ccc(/C=C/C(=O)/C=C(O)/C=C/c2ccc(OC)c(OC)c2)cc1O`
result: active

query: # lookup: test call for `COc1cc(/C=C/C(=O)/C(CCC(=O)O)=C(O)/C=C/c2ccc(O)c(O)c2)ccc1O`
result: inactive

query: # lookup: test call for `CCOC(=O)CC/C(C(=O)/C=C/c1ccc(OC)c(OC)c1)=C(O)\C=C\c1ccc(OC)c(OC)c1`
result: inactive

query: # lookup: test call for `COc1cc(/C=C/C(=O)/C=C(O)/C=C/c2ccc(OCC(=O)O)c(OC)c2)ccc1OCC(=O)O`
result: inactive

query: # lookup: test call for `CCOC(=O)CC/C(C(=O)/C=C/c1cc(O)c(OC)c(OC)c1)=C(O)\C=C\c1cc(O)c(OC)c(OC)c1`
result: active

query: # lookup: test call for `O=C(/C=C(O)/C=C/c1ccc(O)c(O)c1)/C=C/c1ccc(O)c(O)c1`
result: active

query: # lookup: test call for `COC(=O)COc1ccc(/C=C/C(=O)/C=C(O)/C=C/c2ccc(OCC(=O)OC)c(OC)c2)cc1OC`
result: inactive

query: # lookup: test call for `COc1ccc(/C=C/C(=O)/C(C)=C(O)/C=C/c2ccc(OC)c(OC)c2)cc1OC`
result: active

query: # lookup: test call for `COc1cc(OC)c(OC)cc1/C=C/C(=O)/C=C(O)/C=C/c1cc(OC)c(OC)cc1OC`
result: active

query: # lookup: test call for `CCOC(=O)/C=C/C(C(=O)/C=C/c1ccc(OC)c(OC)c1)=C(O)\C=C\c1ccc(OC)c(OC)c1`
result: inactive

query: # lookup: test call for `COc1ccc(/C=C/C(=O)/C=C(O)/C=C/c2ccc(OC)c(OC)c2OC)cc1OC`
result: active

query: # lookup: test call for `COc1cc(/C=C/C(O)=C/C(=O)/C=C/c2ccc(O)c(O)c2)ccc1O`
result: active

query: # lookup: test call for `COc1cc(/C=C/C(=O)/C(CCC(=O)O)=C(O)/C=C/c2ccc(O)c(OC)c2)ccc1O`
result: inactive

Reference for the values: ChEMBL document CHEMBL3400092
